conditions: in water, 318.15 K

{"structure": "C=CC(=O)NC(C)(C)C", "solubility (mole fraction)": 0.00153}
